# System: COLO 205 colorectal tumor cells
# RUN DESCRIPTION: Tumor cell viability inhibition assay (CellTiter-Glo 2.0, 72 hours)
# Format: cell-based
# STATED CONDITIONS: Homo sapiens, COLO 205, 72 h, COLO 205 cell viability
# IC50 listing for each entry below
VALUE TYPE: IC50

INSERT INTO measurements (molecule, value_type, endpoint_result) VALUES
  ('Cc1cc(-c2cc(Cl)ccc2OCCn2c(C)nc3c(c2=O)CC(N2CCC(F)(F)CC2)CC3)c2scc(C(=O)NS(C)(=O)=O)c2n1 (stereo not drawn) [Compound 52]', 'IC50', '< 5 µM'),
  ('CC(=O)N(C)C1CCc2nc(C)n(CCOc3ccc(Cl)cc3-c3cccc(C(=O)O)c3)c(=O)c2C1 (stereo not drawn)', 'IC50', '> 20 µM'),
  ('Cc1cc(-c2cc(Cl)ccc2OCCn2c(C)nc3c(c2=O)C[C@H](N2CCCC(F)(F)CC2)CC3)c2scc(C(=O)O)c2n1 (single isomer, unassigned)', 'IC50', '< 5 µM'),
  ('Cc1cc(-c2cc(Cl)ccc2OCCn2c(C)nc3c(c2=O)C[C@H](N2CCO[C@@H](CC(F)(F)F)C2)CC3)c2scc(C(=O)O)c2n1 (single isomer, unassigned)', 'IC50', '< 5 µM'),
  ('Cc1nc2c(c(=O)n1CC#Cc1ccc(Cl)cc1-c1ccnc3c(C(=O)O)csc13)C[C@H](N1CCC[C@@]3(C1)CC3(F)F)CC2 (single isomer, unassigned)', 'IC50', '< 5 µM'),
  ('Cc1cc(-c2cc(Cl)ccc2OCCn2c(C)nc3c(c2=O)C[C@@H](N2CC4CCC(C2)C4OC(F)(F)F)CC3)c2scc(C(=O)O)c2n1 (single isomer, unassigned)', 'IC50', '< 5 µM'),
  ('COC1CCN([C@@H]2Cc3c(nc(C)n(CCOc4ccc(Cl)cc4-c4cc(C)nc5c(C(=O)O)csc45)c3=O)C3(CC3)C2)CC1 (single isomer, unassigned)', 'IC50', '< 5 µM'),
  ('Cc1cc(-c2cc(Cl)ccc2OCCn2c(C)nc3c(c2=O)C[C@H](N2CCO[C@H](COC(F)(F)F)C2)CC3)c2scc(C(=O)O)c2n1 (single isomer, unassigned)', 'IC50', '< 5 µM'),
  ('Cc1cc(-c2cc(Cl)ccc2OCCn2c(C)nc3c(c2=O)C[C@H](N2CC[C@@H](OC(F)(F)F)C(C)(C)C2)CC3)c2scc(C(=O)O)c2n1 (single isomer, unassigned)', 'IC50', '5 to 20 µM'),
  ('Cc1cc(-c2cc(Cl)ccc2OCCn2c(C)nc3c(c2=O)C[C@@H](N(C)C[C@H]2C[C@@H](C(F)(F)F)C2)CC3)c2scc(C(=O)O)c2n1 (stereo in doubt)', 'IC50', '< 5 µM'),
  ('Cc1cc(-c2cc(Cl)ccc2OCCn2c(C)nc3c(c2=O)CC(N2CCc4cc(C(F)(F)F)ccc4C2)CC3)c2scc(C(=O)O)c2n1 (stereo not drawn)', 'IC50', '< 5 µM'),
  ('Cc1cc(-c2cc(Cl)ccc2OCCn2c(C)nc3c(c2=O)CC(N2CCC(OC(F)(F)F)CC2)CC3)c2scc(C(=O)O)c2n1 (single isomer, unassigned) [Compound 135]', 'IC50', '< 5 µM'),
  ('Cc1cc(-c2cc(Cl)ccc2OCCn2c(C)nc3c(c2=O)CC(N2CCc4nc[nH]c4C2)CC3)c2scc(C(=O)O)c2n1 (stereo not drawn)', 'IC50', '> 20 µM'),
  ('Cc1cc(-c2cc(Cl)ccc2OCCn2c(C)nc3c(c2=O)C[C@H](N2CCCC[C@H]2c2nccs2)CC3)c2scc(C(=O)O)c2n1 (single isomer, unassigned)', 'IC50', '< 5 µM'),
  ('Cc1cc(-c2cc(Cl)ccc2OCCn2c(C)nc3c(c2=O)C[C@@H](N2C[C@H]4CC[C@@H]2CC4OC(F)(F)F)CC32CC2)c2scc(C(=O)O)c2n1 (single isomer, unassigned)', 'IC50', '< 5 µM'),
  ('Cc1cc(-c2cc(Cl)ccc2OCCn2c(C)nc3c(c2=O)CC(N(C)Cc2cccnc2)CC3)c2scc(C(=O)O)c2n1 (stereo not drawn)', 'IC50', '< 5 µM'),
  ('Cc1cc(-c2cc(Cl)ccc2OCCn2c(C)nc3c(c2=O)C[C@H](N2CCCC[C@@H]2C)CC3)c2scc(C(=O)O)c2n1 (single isomer, unassigned)', 'IC50', '< 5 µM'),
  ('Cc1cc(-c2cc(Cl)ccc2OCCn2c(C)nc3c(c2=O)C[C@H](N2CCC[C@@]4(C2)CC4(F)F)CC3)c2scc(C(=O)O)c2n1 (single isomer, unassigned)', 'IC50', '< 5 µM'),
  ('Cc1cc(-c2cc(Cl)ccc2OCCn2c(C)nc3c(c2=O)CC(N(C)C[C@H]2C[C@@H](C(F)(F)F)C2)CC3)c2scc(C(=O)O)c2n1 (stereo partly drawn)', 'IC50', '< 5 µM'),
  ('Cc1nc2c(c(=O)n1CC#Cc1ccc(Cl)cc1-c1ccnc3c(C(=O)O)csc13)C[C@@H](N1CC[C@@H](F)C1)CC2 (single isomer, unassigned)', 'IC50', '< 5 µM'),
  ('Cc1cc(-c2cc(Cl)ccc2OCCn2c(C)nc3c(c2=O)C[C@@H](N2CCC[C@@H](C(F)(F)F)C2)CC3)c2scc(C(=O)O)c2n1 (single isomer, unassigned)', 'IC50', '5 to 20 µM');

* * *

# Test system: COLO 205 colorectal tumor cells
# RUN DESCRIPTION: Tumor cell viability inhibition assay (CellTiter-Glo 2.0, 72 hours)
# Type: cell-based
# STATED CONDITIONS: Homo sapiens, COLO 205, 72 h, COLO 205 cell viability
VALUE TYPE: IC50

INSERT INTO assay_data (compound, value_type, endpoint_result) VALUES
  ('Cc1cc(-c2cc(Cl)c(=O)[nH]c2OCCn2c(C)nc3c(c2=O)CC(N(C)CC2CC(F)(F)C2)CC3)c2scc(C(=O)O)c2n1 (single isomer, unassigned) [Compound 237]', 'IC50', '> 20 µM'),
  ('Cc1cc(-c2cc(Cl)ccc2OCCn2c(C)nc3c(c2=O)C[C@@H](N(C)C24CC5CC(CC(C5)C2)C4)CC3)c2scc(C(=O)O)c2n1 (single isomer, unassigned) [Compound 493]', 'IC50', '< 5 µM'),
  ('COc1cc(CN(C)C2CCc3nc(C)n(CCOc4ccc(Cl)cc4-c4cc(C)nc5c(C(=O)NS(C)(=O)=O)csc45)c(=O)c3C2)ccn1 (single isomer, unassigned) [Compound 216]', 'IC50', '< 5 µM'),
  ('Cc1cc(-c2cc(Cl)ccc2OCCn2c(C)nc3c(c2=O)C[C@@H](N2CCCC[C@H]2C)CC3)c2scc(C(=O)O)c2n1 (single isomer, unassigned) [Compound 437]', 'IC50', '5 to 20 µM'),
  ('Cc1cc(-c2cc(Cl)ccc2OCCn2c(C)nc3c(c2=O)CC(N(C)Cc2ccncc2)CC3)c2scc(C(=O)O)c2n1 (single isomer, unassigned) [Compound 99]', 'IC50', '5 to 20 µM'),
  ('Cc1cc(-c2cc(Cl)ccc2OCCn2c(C)nc3c(c2=O)C[C@H](N2CCCC[C@@H]2c2cccc(F)c2)CC3)c2scc(C(=O)O)c2n1 (single isomer, unassigned) [Compound 541]', 'IC50', '< 5 µM'),
  ('Cc1cc(-c2cc(Cl)ccc2OCCn2c(C)nc3c(c2=O)CC(N2CC4(CC=C(F)CC4)C2)CC3)c2scc(C(=O)O)c2n1 (centres unmarked) [Compound 162]', 'IC50', '< 5 µM'),
  ('COC(=O)c1csc2c(-c3cc(Cl)ccc3OCCn3c(C)nc4c(c3=O)CC(N(CC(F)(F)F)C3CC3)CC4)cc(C)nc12 (centres unmarked) [Compound 353]', 'IC50', '> 20 µM'),
  ('Cc1cc(-c2cc(Cl)ccc2OCCn2c(C)nc3c(c2=O)C[C@@H](N2C[C@@H]4CC[C@H]2CC4OC(F)(F)F)CC3)c2scc(C(=O)O)c2n1 (single isomer, unassigned) [Compound 498]', 'IC50', '< 5 µM'),
  ('Cc1cc(-c2cc(Cl)ccc2OCCn2c(C)nc3c(c2=O)C[C@@H](N2CCC[C@H](C(F)(F)F)C2)CC3)c2scc(C(=O)O)c2n1 (single isomer, unassigned) [Compound 384]', 'IC50', '< 5 µM'),
  ('COC1CCN(C2CCc3nc(C)n(CCOc4ccc(Cl)cc4-c4cc(C)nc5c(C(=O)NS(C)(=O)=O)csc45)c(=O)c3C2)CC1 (single isomer, unassigned) [Compound 239]', 'IC50', '< 5 µM');

* * *

# TEST SYSTEM: human eIF4E protein (Homo sapiens)
# Sequence (P06730 whole entry): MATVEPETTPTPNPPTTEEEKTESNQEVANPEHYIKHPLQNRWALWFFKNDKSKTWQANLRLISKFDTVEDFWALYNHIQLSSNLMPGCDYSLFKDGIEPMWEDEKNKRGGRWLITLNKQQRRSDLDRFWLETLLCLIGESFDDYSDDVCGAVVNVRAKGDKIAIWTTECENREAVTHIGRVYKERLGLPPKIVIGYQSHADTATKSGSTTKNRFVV
# IC50 listing for each entry below
VALUE TYPE: IC50

INSERT INTO results (compound, test_system, value_type, endpoint_result) VALUES
  ('COC1CCc2nc(C)n(CCOc3ccc(Cl)cc3-c3cc(C)nc4c(C(=O)O)csc34)c(=O)c2C1 (single isomer, unassigned) [Compound 5]', 'human eIF4E protein (Homo sapiens)', 'IC50', '100 to 500 nM'),
  ('Cc1cc(-c2cc(Cl)ccc2OCCn2c(C)nc3c(c2=O)CC(N(C)[C@H]2C[C@](C)(O)C2)CC3)c2scc(C(=O)O)c2n1 (stereo partly drawn) [Compound 193]', 'human eIF4E protein (Homo sapiens)', 'IC50', '< 100 nM'),
  ('Cc1cc(-c2cc(Cl)ccc2OCCn2c(C)nc3c(c2=O)CC(N(C)Cc2ccc(=O)[nH]c2)CC3)c2scc(C(=O)O)c2n1 (single isomer, unassigned) [Compound 236]', 'human eIF4E protein (Homo sapiens)', 'IC50', '< 100 nM'),
  ('Cc1cc(-c2cc(Cl)ccc2OCCn2c(C)nc3c(c2=O)C[C@H](N2CCCC[C@H]2c2cccc(F)c2)CC3)c2scc(C(=O)O)c2n1 (single isomer, unassigned) [Compound 540]', 'human eIF4E protein (Homo sapiens)', 'IC50', '< 100 nM'),
  ('Cc1nc2c(c(=O)n1CC#Cc1ccc(Cl)cc1-c1ccnc3c(C(=O)O)csc13)CC(N1CCCCC1)CC2 (stereo not drawn) [Compound 357]', 'human eIF4E protein (Homo sapiens)', 'IC50', '< 100 nM'),
  ('Cc1cc(-c2cc(Cl)ccc2OCCn2c(C)nc3c(c2=O)CC(N(C)C2CC2)CC3)c2scc(C(=O)NS(=O)(=O)c3ccccn3)c2n1 (single isomer, unassigned) [Compound 286]', 'human eIF4E protein (Homo sapiens)', 'IC50', '< 100 nM');
